Biological target: biotinylated labeled human GPC3 protein (produced in-house) (human, UniProt P51654 25-559, limits assumed, biotinylated (Dojindo, Cat. No. LK03); sites not stated)
Test: ELISA, biotinylated human GPC3 protein
Endpoint name: OD450 at 0.02 nM (OD450)
Value expressed in OD450; do not type the unit.

Please review the entries below; each comes with its answer.
hAb007LH1L1a (antibody, human IgG1, V domains shown, Humanized F3.81.19; VH H1 + VL L1a; expressed as human IgG1) VH: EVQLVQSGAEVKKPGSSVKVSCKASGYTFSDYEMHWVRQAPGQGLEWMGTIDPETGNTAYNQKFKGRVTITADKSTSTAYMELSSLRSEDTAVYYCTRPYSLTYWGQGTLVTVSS VL: DIVMTQTPLSLPVTPGEPASISCRSSQSFVHSDGDTYLQWYLQKPGQSPQLLIYKVSNRFSGVPDRFSGSGSGTDFTLKISRVEAEDVGVYYCFQGSHVPYTFGQGTKLEIK :: 0.218
hAb006LH1L1a (antibody, human IgG1, V domains shown, Humanized F3.38.7; VH H1 + VL L1a; expressed as human IgG1) VH: EVQLVQSGAEVKKPGSSVKVSCKASGYTFSDYEIHWVRQAPGQGLEWMGAIDPKTGNTAYNQKFMGRVTITADKSTSTAYMELSSLRSEDTAVYYCTRYFSFAYWGQGTLVTVSS VL: DIVMTQTPLSLPVTPGEPASISCRSSQTFVHSDGNTYLQWYLQKPGQSPQLLIYKVSNRFSGVPDRFSGSGSGTDFTLKISRVEAEDVGVYYCFQGSHVPYTFGQGTKLEIK :: 0.101

Asked: Look up OD450 at 0.02 nM: hAb005LH3L1 (antibody, human IgG1, V domains shown, Humanized F3.54.12; VH H3 + VL L1; expressed as human IgG1) VH: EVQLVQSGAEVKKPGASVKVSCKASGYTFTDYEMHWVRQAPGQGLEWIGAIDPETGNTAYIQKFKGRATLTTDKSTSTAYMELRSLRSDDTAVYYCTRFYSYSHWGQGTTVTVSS VL: DIVMTQTPLSLPVTPGEPASISCRSSQSLVHSNGNTYLHWYLQKPGQSPQLLIYKVSNRFSGVPDRFSGSGSGTDFTLKISRVEAEDVGVYYCSQNTHVPPTFGGGTKVEIK
Given back: 0.441
